- System: Gerbillinae
- RUN DESCRIPTION: Inhibition of GR-73632-induced foot tapping in gerbils at 3 mg/kg, iv after 24 hrs
- Format: functional
- REPORTED CONDITIONS: Gerbillinae, iv, 24 h
Measured inhibition in vivo at 3 mg/kg accompanies every entry in the list below.
MEASUREMENT TYPE: inhibition in vivo at 3 mg/kg

[[record]]
compound_string = "CC(=O)N1CCN(C(=O)N2C[C@@H](O[C@H](C)c3cc(C(F)(F)F)cc(C(F)(F)F)c3)[C@H](c3ccc(F)cc3)C2)CC1"
result_value = "57%"

[[record]]
compound_string = "CC(=O)N1CCC(C(=O)N2C[C@@H](O[C@H](C)c3cc(C(F)(F)F)cc(C(F)(F)F)c3)[C@H](c3ccc(F)cc3)C2)CC1"
result_value = "50%"

[[record]]
compound_string = "C[C@@H](O[C@@H]1CN(C(=O)NCc2cnn[nH]2)C[C@H]1c1ccc(F)cc1)c1cc(C(F)(F)F)cc(C(F)(F)F)c1"
result_value = "24%"

[[record]]
compound_string = "C[C@@H](O[C@@H]1CN(C2=CC(=O)CC(C)(C)C2)C[C@H]1c1ccccc1)c1cc(C(F)(F)F)cc(C(F)(F)F)c1"
result_value = "5%"

[[record]]
compound_string = "C[C@@H](O[C@@H]1CN(C(=O)[C@@H]2CCC(=O)N2C)C[C@H]1c1ccc(F)cc1)c1cc(C(F)(F)F)cc(C(F)(F)F)c1"
result_value = "100%"


The values you see were collected from ChEMBL document CHEMBL1139768.
